Values were extracted from patent US11667602B2.

EXPERIMENTAL DETAILS: Rat Hepatocyte Stability (Test E)
Assay type: in vitro ADME
TEST SETTINGS: rat, hepatocytes, geometric mean if run multiple times
RECORDED ENDPOINT: hepatocyte CLint (µL/min/1e6 cells)

COc1cc(F)c(O[C@H]2CC[C@@](C)(C(=O)O)CC2)cc1C(=O)Nc1cccc(Cl)c1C(=O)NCC1(C)CCC1 : 13
COc1cc(F)c(O[C@H]2CC[C@@](C)(C(=O)O)CC2)cc1C(=O)N[C@@H]1CCC[C@@H]1C(=O)Nc1cccc(S(=O)(=O)C(F)(F)F)c1 : 46
CCC(CC)CNC(=O)[C@H]1[C@@H]2CC[C@@H](C2)[C@H]1NC(=O)c1cc(OC2CCC(C)(C(=O)O)CC2)c(F)cc1OC (stereo partly drawn) : 25
COc1cc(F)c(O[C@H]2CC[C@@H](C(=O)O)CC2)cc1C(=O)N[C@@H]1[C@H]2CC[C@H](C2)[C@@H]1C(=O)Nc1c(F)c(F)c(F)c(F)c1F : 49
COc1cc(F)c(O[C@H]2CC[C@@](C)(C(N)=O)CC2)cc1C(=O)N[C@@H]1[C@H]2CC[C@H](C2)[C@@H]1C(=O)NCC(C)(C)C : 150
COc1cc(F)c(-c2ccc(CCC(N)(CO)CO)c(F)c2)cc1C(=O)N[C@@H]1[C@H]2CC[C@H](C2)[C@@H]1C(=O)Nc1cccc(S(=O)(=O)C(F)(F)F)c1 : 8.8

I = COc1cc(C#N)c(O[C@H]2CC[C@@](C)(C(=O)O)CC2)cc1C(=O)N[C@@H]1[C@H]2CC[C@H](C2)[C@@H]1C(=O)NCc1nccc(C(F)F)n1
II = COc1cc(F)c(-c2ccc(C(N)=O)cc2)cc1C(=O)N[C@H]1[C@@H](C(=O)Nc2cccc(S(=O)(=O)C(F)(F)F)c2)[C@@H]2C=C[C@H]1C2
III = COc1cc(F)c(O[C@H]2CC[C@@](C)(C(=O)O)CC2)cc1C(=O)N[C@@H]1CCC[C@@H]1C(=O)NC(C(C)C)C(C)C
IV = COc1cc(C#N)c(O[C@H]2CC[C@@](C)(C(=O)O)CC2)cc1C(=O)N[C@@H]1[C@H]2CC[C@H](C2)[C@@H]1C(=O)NCC1(C)CC1
V = CC1(CNC(=O)[C@H]2[C@@H]3CC[C@@H](C3)[C@H]2NC(=O)c2cc(O[C@H]3CC[C@@](C)(C(=O)O)CC3)c(F)cc2OC(F)F)CCC1
Rank items: key hepatocyte CLint, increasing. List the labels in the requested order.
V, IV, II, III, I
(V: 10 µL/min/1e6 cells, IV: 22 µL/min/1e6 cells, II: 38 µL/min/1e6 cells, III: 55 µL/min/1e6 cells, I: 94 µL/min/1e6 cells)
